Test system: NB12 tumor-initiating cells
Assay: IC50 determination, Alamar Blue cell survival/growth assay
Type: cell-based, human
Details: Homo sapiens; NB12; 10 serial dilutions 5 μM to 9 nM; Alamar Blue; read-out: NB12 IC50
pIC50: −log10 of the molar value.
We use 6 as the dividing line for pIC50: on or above the line is 1 (yes), below is 0 (no).

Recorded results for 3 compounds are shown here.
COc1cc([C@@H]2c3cc4c(cc3[C@H](O)[C@H]3COC(=O)[C@H]23)OCO4)cc(OC)c1OC [Podophyllotoxin] = 1 (yes)
C[C@@H]1O[C@@H](O[C@H]2CC[C@]3(C=O)[C@H]4CC[C@]5(C)[C@@H](C6=CC(=O)OC6)CC[C@]5(O)[C@@H]4CC[C@]3(O)C2)[C@H](O)[C@H](O)[C@H]1O [CONVALLATOXIN] = 1 (yes)
C=C1C(=O)O[C@H]2C[C@@H]1C(OC(C)=O)C/C(C)=C/CC/C(C)=C/CC[C@@]2(C)O (some centres unmarked) [CRASSIN ACETATE] = 0 (no)

Task: Answer whether pIC50 of C[C@@H]1O[C@@H](O[C@H]2C[C@@H](O)[C@]3(CO)[C@H]4[C@H](O)C[C@]5(C)[C@@H](C6=CC(=O)OC6)CC[C@]5(O)[C@@H]4CC[C@]3(O)C2)[C@H](O)[C@H](O)[C@H]1O [Ouabain] is greater than or equal to 6.
Output: 1 (yes)
